Every entry's value here was drawn from patent US20150071856A1.

- SYSTEM_NAME: rFzd-1 (frizzled-1 receptor) (rat, UniProt Q08463 69-641)
- Sequence (Q08463 69-641): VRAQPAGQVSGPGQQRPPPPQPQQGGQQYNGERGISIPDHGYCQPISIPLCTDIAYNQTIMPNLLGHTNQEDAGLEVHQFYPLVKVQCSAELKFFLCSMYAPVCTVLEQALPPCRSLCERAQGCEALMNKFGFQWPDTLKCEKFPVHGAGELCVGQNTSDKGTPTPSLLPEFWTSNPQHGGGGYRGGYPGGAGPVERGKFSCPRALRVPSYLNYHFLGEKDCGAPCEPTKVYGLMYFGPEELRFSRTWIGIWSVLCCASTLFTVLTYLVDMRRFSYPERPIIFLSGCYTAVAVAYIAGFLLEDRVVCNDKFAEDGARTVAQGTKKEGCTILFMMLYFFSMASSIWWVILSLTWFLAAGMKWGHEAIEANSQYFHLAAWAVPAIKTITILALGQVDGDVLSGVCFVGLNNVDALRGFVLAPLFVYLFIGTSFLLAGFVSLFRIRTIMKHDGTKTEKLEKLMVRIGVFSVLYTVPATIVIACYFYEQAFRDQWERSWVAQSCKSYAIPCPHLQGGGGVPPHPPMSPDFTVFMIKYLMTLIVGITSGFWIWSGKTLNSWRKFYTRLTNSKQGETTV
- TEST_DESCRIPTION: cell-based or functional assay
No end group written: not given here. alkyl = not defined here
ATTRIBUTE_MEASURED: % of inhibition of Wnt3a-induced luciferase activity (peptide at 1.10^-9 M) (%)

Some solved cases for reference:
BINDER	ENDPOINT_UNIT	ENDPOINT_RESULT
C(alkyl)NKTSEGMDGC(alkyl)EL (reading uncertain; also: alkyl group not given here) [UM206 (C = C-alkyl)]	%	1
CNKTSAGMDGCEL [UM206 (6 E = A)]	%	70.8
CNKTSEGMAGCEL [UM206 (9 D = A)]	%	40.5

(1) CNKASEGMDGCEL [UM206 (4 T = A)]
(2) SNKTSEGMDGSEL [UM206 (C = S)]
Task: // task: argmin of % of inhibition of Wnt3a-induced luciferase activity (peptide at 1.10^-9 M) over [ 1 , 2 ] Your answer should be the label attached to the chosen record.
Result: 2
(2: 0%, 1: 28.1%)
